test: Selectivity index, ratio of IC50 for human MRC5 cells to IC50 for chloroquine-resistant Plasmodium falciparum FcB1R/Colombia; assay type: toxicity, cell-based; settings: read-out: Ratio CC50/IC50
selectivity ratio values for the compounds below.
Number, no unit, nothing else.

>>> result_value("O=C(CN1CCCCC1)Nc1cc(COC(=O)NCCN2CCCCC2)cc(Nc2ccnc3cc(Cl)ccc23)c1")
1120

So what's the measured selectivity ratio for this one? `CN(C)CCNC(=O)OCc1cc(NC(=O)CN2CCCCC2)cc(Nc2ccnc3cc(Cl)ccc23)c1`
304

Request: `CCN(CC)CCCNC(=O)OCc1cc(NC(=O)CN2CCCCC2)cc(Nc2ccnc3cc(Cl)ccc23)c1`
434

Request: `O=C(CN1CCCCC1)Nc1cc(COC(=O)CCCCN2CCCCC2)cc(Nc2ccnc3cc(Cl)ccc23)c1`
806

Request: `O=C(CN1CCCCC1)Nc1cc(COC(=O)CCCCCN2CCCCC2)cc(Nc2ccnc3cc(Cl)ccc23)c1`
456

Request: `O=C(CN1CCCCC1)Nc1cc(CNCCN2CCCC2)cc(Nc2ccnc3cc(Cl)ccc23)c1`
182

Request: `CN(C)CCNC(=O)c1cc(NC(=O)CN2CCCCC2)cc(Nc2ccnc3cc(Cl)ccc23)c1`
478

###

experiment: Cytotoxicity against human MRC5 cells after 7 days by MTT assay; assay type: cell-based
CC50 at 168 h values for the compounds below.
Express your answer in µM, writing the number without its unit.

Consider the worked cases shown below.
>>> result_value("CN1CCN(C(=O)c2cc(NC(=O)CN3CCCCC3)cc(Nc3ccnc4cc(Cl)ccc34)c2)CC1")
16
>>> result_value("CN(C)CCNC(=O)c1cc(NC(=O)CN2CCCCC2)cc(Nc2ccnc3cc(Cl)ccc23)c1")
15
>>> result_value("O=C(CN1CCCCC1)Nc1cc(Nc2ccnc3cc(Cl)ccc23)cc(C(=O)N2CCN(c3ccccc3)CC2)c1")
16
>>> result_value("O=C(CN1CCCCC1)Nc1cc(CO)cc(Nc2ccnc3cc(Cl)ccc23)c1")
12.5
>>> result_value("CCN(CC)CCCNC(=O)OCc1cc(NC(=O)CN2CCCCC2)cc(Nc2ccnc3cc(Cl)ccc23)c1")
6.3

So what's the measured CC50 at 168 h for this one? `O=C(CN1CCCCC1)Nc1cc(COC(=O)NCCN2CCCCC2)cc(Nc2ccnc3cc(Cl)ccc23)c1`
12.5

Request: `O=C(CN1CCCCC1)Nc1cc(Nc2ccnc3cc(Cl)ccc23)cc(C(=O)N2CCN(Cc3ccccc3)CC2)c1`
15

###

assay: Cytotoxicity against human MRC5 cells after 7 days by MTT assay; assay type: cell-based
CC50 at 168 h values for the molecules below.
Express your answer in µM, writing the number without its unit.

Consider the worked cases shown below.
>>> result_value("CN(C)CCN(C)C(=O)c1cc(NC(=O)CN2CCCCC2)cc(Nc2ccnc3cc(Cl)ccc23)c1")
16
>>> result_value("CCN(CC)CCCC(C)Nc1ccnc2cc(Cl)ccc12 (centres undefined)")
50

Okay, next one:
So what's the measured CC50 at 168 h for this one? `CCN(CC)Cc1cc(Nc2ccnc3cc(Cl)ccc23)ccc1O.Cl`
12

###

system: Plasmodium berghei; experiment: Antimalarial activity as increased MST in Plasmodium berghei ANKA 65 infected Swiss CD1 mice (Mus musculus) at 40 mg/kg peroral dose day 1 followed by intraperitoneal dose for 4 days; type: functional; conditions: route oral
Activity values for the compounds below.
Express your answer in %, writing the number without its unit.

>>> result_value("O=C(CN1CCCCC1)Nc1cc(COC(=O)CCCCN2CCOCC2)cc(Nc2ccnc3cc(Cl)ccc23)c1")
73
>>> result_value("O=C(CN1CCCCC1)Nc1cc(COC(=O)NCCN2CCCCC2)cc(Nc2ccnc3cc(Cl)ccc23)c1")
50
>>> result_value("O=C(CN1CCCCC1)Nc1cc(CO)cc(Nc2ccnc3cc(Cl)ccc23)c1")
110

Okay, next one:
So what's the measured Activity for this one? `CN1CCN(C(=O)c2cc(NC(=O)CN3CCCCC3)cc(Nc3ccnc4cc(Cl)ccc34)c2)CC1`
150

###

experiment: Selectivity index, ratio of IC50 for human MRC5 cells to IC50 for chloroquine-resistant Plasmodium falciparum FcB1R/Colombia; format: toxicity, cell-based; details: read-out: Ratio CC50/IC50
Just a reminder that ties go to no: only selectivity ratio strictly below 400 counts as yes.

>>> group_label("CN(C)CCN(C)C(=O)c1cc(NC(=O)CN2CCCCC2)cc(Nc2ccnc3cc(Cl)ccc23)c1")
"no"
>>> group_label("O=C(CN1CCCCC1)Nc1cc(Nc2ccnc3cc(Cl)ccc23)cc(C(=O)N2CCN(Cc3ccccc3)CC2)c1")
"yes"

Determine if `O=C(CN1CCCCC1)Nc1cc(Nc2ccnc3cc(Cl)ccc23)cc(C(=O)N2CCN(c3ccccc3)CC2)c1` shows selectivity ratio strictly lower than 400.
yes

Request: `CCN(CC)CCCCC(=O)OCc1cc(NC(=O)CN2CCCCC2)cc(Nc2ccnc3cc(Cl)ccc23)c1`
yes

Request: `O=C(CN1CCCCC1)Nc1cc(COC(=O)CCN2CCCCC2)cc(Nc2ccnc3cc(Cl)ccc23)c1`
yes

Request: `O=C(CN1CCCCC1)Nc1cc(COC(=O)CCCCN2CCOCC2)cc(Nc2ccnc3cc(Cl)ccc23)c1`
no

###

tested on: Plasmodium falciparum; test: Antimalarial activity after 24 hrs against chloroquine-resistant Plasmodium falciparum K1/Thailand by [3H]hypoxanthine uptake; assay type: functional, organism-based
IC50 values for the compounds below.
Numeric answer plus unit only.

Consider the worked cases shown below.
>>> result_value("CCN(CC)Cc1cc(Nc2ccnc3cc(Cl)ccc23)ccc1O.Cl")
"0.0094 µM"
>>> result_value("O=C(CN1CCCCC1)Nc1cc(COC(=O)NCCN2CCOCC2)cc(Nc2ccnc3cc(Cl)ccc23)c1")
"0.0194 µM"
>>> result_value("CN1CCN(C(=O)c2cc(NC(=O)CN3CCCCC3)cc(Nc3ccnc4cc(Cl)ccc34)c2)CC1")
"0.0512 µM"

Okay, next one:
I'm curious: which IC50 was measured for `O=C(CN1CCCCC1)Nc1cc(COC(=O)NCCN2CCCCC2)cc(Nc2ccnc3cc(Cl)ccc23)c1` tested on Plasmodium falciparum?
0.0097 µM

###

experiment: Selectivity index, ratio of IC50 for human MRC5 cells to IC50 for chloroquine-resistant Plasmodium falciparum FcB1R/Colombia; assay type: toxicity, cell-based; conditions: read-out: Ratio CC50/IC50
RECORDED ENDPOINT: selectivity ratio
Number, no unit, nothing else.

>>> result_value("O=C(CN1CCCCC1)Nc1cc(COC(=O)CN2CCCCC2)cc(Nc2ccnc3cc(Cl)ccc23)c1")
231
>>> result_value("O=C(CN1CCCCC1)Nc1cc(CNCCN2CCCCC2)cc(Nc2ccnc3cc(Cl)ccc23)c1")
648
>>> result_value("CCN(CC)Cc1cc(Nc2ccnc3cc(Cl)ccc23)ccc1O.Cl")
2500

So what's the measured selectivity ratio for this one? `CN(C)CCNCc1cc(NC(=O)CN2CCCCC2)cc(Nc2ccnc3cc(Cl)ccc23)c1`
1150

Request: `O=C(CN1CCCCC1)Nc1cc(Nc2ccnc3cc(Cl)ccc23)cc(C(=O)NCCN2CCCC2)c1`
1024

Request: `CN1CCN(C(=O)c2cc(NC(=O)CN3CCCCC3)cc(Nc3ccnc4cc(Cl)ccc34)c2)CC1`
833

Request: `O=C(CN1CCCCC1)Nc1cc(CO)cc(Nc2ccnc3cc(Cl)ccc23)c1`
281

Request: `CN(C)CCCNCc1cc(NC(=O)CN2CCCCC2)cc(Nc2ccnc3cc(Cl)ccc23)c1`
174

###

assay: Cytotoxicity against human MRC5 cells after 7 days by MTT assay; type: cell-based
RECORDED ENDPOINT: CC50 at 168 h

Consider the worked cases shown below.
>>> result_value("O=C(CN1CCCCC1)Nc1cc(COC(=O)NCCN2CCOCC2)cc(Nc2ccnc3cc(Cl)ccc23)c1")
"> 12.5 µM"
>>> result_value("O=C(CN1CCCCC1)Nc1cc(Nc2ccnc3cc(Cl)ccc23)cc(C(=O)N2CCOCC2)c1")
"> 32 µM"
>>> result_value("CN(C)CCCNC(=O)c1cc(NC(=O)CN2CCCCC2)cc(Nc2ccnc3cc(Cl)ccc23)c1")
"> 32 µM"

Okay, next one:
So what's the measured CC50 at 168 h for this one? `O=C(CN1CCCCC1)Nc1cc(Nc2ccnc3cc(Cl)ccc23)cc(C(=O)N2CCCCC2)c1`
> 32 µM

###

CC50 at 168 h values for the molecules below.
test: Cytotoxicity against human MRC5 cells after 7 days by MTT assay; assay type: cell-based
Express your answer in µM, writing the number without its unit.

Consider the worked cases shown below.
>>> result_value("CN1CCN(CCCNC(=O)OCc2cc(NC(=O)CN3CCCCC3)cc(Nc3ccnc4cc(Cl)ccc34)c2)CC1")
6.3
>>> result_value("CN(C)CCNC(=O)OCc1cc(NC(=O)CN2CCCCC2)cc(Nc2ccnc3cc(Cl)ccc23)c1")
3.1

Okay, next one:
So what's the measured CC50 at 168 h for this one? `O=C(CN1CCCCC1)Nc1cc(Nc2ccnc3cc(Cl)ccc23)cc(C(=O)NCCN2CCCC2)c1`
17
